Test system: SN12C renal
Experiment: NCI-60 one-dose screen, 48 h (100 = growth as untreated, 0 = no growth, -100 = all killed)
Conditions: 10 µM
Compounds without any hit were thinned out: in the full panel of roughly 83,000, 20% have a hit. Activity calls are given as the source filed them. How the source made its calls: active means growth percent below 10; inactive means the rest.
Each record here notes measured growth.

GET /values?readout=growth&system=SN12C renal&item= OCC1OC2C(NC(=S)N2c2ccccc2)C(O)C1O (stereo unspecified)
91.1% (inactive)

GET /values?readout=growth&system=SN12C renal&item= `CCN(CC)CC(=O)N(CC)c1ccc(C)c(Cl)c1`
101% (inactive)

GET /values?readout=growth&system=SN12C renal&item= CC(CN(C)C)Oc1ccccc1NC1=C(Cl)C(=O)C(Nc2ccccc2OC(C)CN(C)C)=C(Cl)C1=O (stereo unspecified)
-96% (active)

GET /values?readout=growth&system=SN12C renal&item= `CCOC(=O)c1cc(C(=O)c2cc(OC)c(OC)c(OC)c2)n2c1ccc1c3cccnc3ccc12`
78.7% (inactive)

GET /values?readout=growth&system=SN12C renal&item= `O=C1c2ccccc2C(=O)c2c1ccc(C(Br)Br)c2Cl`
-48.5% (active)

GET /values?readout=growth&system=SN12C renal&item= CCCCN(CCCC)C(=O)[C@H](CC)[C@@H]1CC[C@@H](C)[C@@H]([C@H](C)[C@@H](O)[C@@H](C)C(=O)[C@H](CC)C2O[C@]3(C=CC(=O)[C@]4(CC[C@@](C)([C@H]5CC[C@](O)(CC)[C@H](C)O5)O4)O3)[C@H](C)C[C@@H]2C)O1 (stereo partly specified)
28.7% (inactive)

GET /values?readout=growth&system=SN12C renal&item= `Cc1ccc(C2=NN(c3ccc(S(C)(=O)=O)cc3)C(=O)CC2)cc1`
39.7% (inactive)

GET /values?readout=growth&system=SN12C renal&item= `O=[N+]([O-])c1ccc2ncccc2c1Cl`
45.6% (inactive)
